Test system: PC12 cells
Test: MTT toxicity (safety evaluation) on PC12 nerve cells
Assay type: cell-based
Conditions: PC12, 30 μM, 24 h
Rank (cytotoxicity standard) 24 h for assorted compounds
API doc: respond with a numeric literal and nothing else, no unit.

compound: O=C1/C(=C/c2cc(Cl)c(O)c(Cl)c2)CNC/C1=C\c1cc(Cl)c(O)c(Cl)c1 [CAK01]
reported: 0

Need Rank (cytotoxicity standard) 24 h, item COc1cc(/C=C2\CN(C(C)C)C/C(=C\c3cc(Cl)c(O)c(OC)c3)C2=O)cc(Cl)c1O [CAK05] 2

Given CC(C)N1C/C(=C\c2cc(Cl)c(O)c(Cl)c2)C(=O)/C(=C/c2cc(Cl)c(O)c(Cl)c2)C1 [CAK04] , state its recorded Rank (cytotoxicity standard) 24 h. 1

Entry COc1cc(/C=C2\CNC/C(=C\c3cc(Cl)c(O)c(OC)c3)C2=O)cc(Cl)c1O [CAK06] has what Rank (cytotoxicity standard) 24 h? 1

Returns the measured Rank (cytotoxicity standard) 24 h for the input compound. Input: CN1C/C(=C\c2cc(Cl)c(O)c(Cl)c2)C(=O)/C(=C/c2cc(Cl)c(O)c(Cl)c2)C1 [CAK02] 1

Please give the measured Rank (cytotoxicity standard) 24 h for this compound: COc1cc(/C=C2\CN(C)C/C(=C\c3cc(Cl)c(O)c(OC)c3)C2=O)cc(Cl)c1O [CAK07] 2

What Rank (cytotoxicity standard) 24 h value was documented for this compound, CCN1C/C(=C\c2cc(Cl)c(O)c(Cl)c2)C(=O)/C(=C/c2cc(Cl)c(O)c(Cl)c2)C1 [CAK03] ? 1

* * *

Test system: PC12 cells
Test: MTT toxicity (safety evaluation) on PC12 nerve cells
Type: cell-based
Settings: PC12, 3.75 μM, 48 h
observable: Relative growth rate (%) 48 h
Quick note: give the figure in %, leave out the unit.

Request body: readout Relative growth rate (%) 48 h, system PC12 cells, query CCN1C/C(=C\c2cc(Cl)c(O)c(Cl)c2)C(=O)/C(=C/c2cc(Cl)c(O)c(Cl)c2)C1 [CAK03] . Return the value. 98.96

Record lookup: for PC12 cells, what Relative growth rate (%) 48 h belongs to O=C1/C(=C/c2cc(Cl)c(O)c(Cl)c2)CNC/C1=C\c1cc(Cl)c(O)c(Cl)c1 [CAK01] ? 99.22

# returns recorded Relative growth rate (%) 48 h (system: PC12 cells) for COc1cc(/C=C2\CN(C)C/C(=C\c3cc(Cl)c(O)c(OC)c3)C2=O)cc(Cl)c1O [CAK07] 82.45

Under PC12 cells: Relative growth rate (%) 48 h value of COc1cc(/C=C2\CNC/C(=C\c3cc(Cl)c(O)c(OC)c3)C2=O)cc(Cl)c1O [CAK06] ? 100.05

Param readout = Relative growth rate (%) 48 h; param system = PC12 cells; param query = CN1C/C(=C\c2cc(Cl)c(O)c(Cl)c2)C(=O)/C(=C/c2cc(Cl)c(O)c(Cl)c2)C1 [CAK02] ; response: value 98.35

Give the reported Relative growth rate (%) 48 h for COc1cc(/C=C2\CN(C(C)C)C/C(=C\c3cc(Cl)c(O)c(OC)c3)C2=O)cc(Cl)c1O [CAK05] (system: PC12 cells). 61.38

Kindly state the measured Relative growth rate (%) 48 h obtained for CC(C)N1C/C(=C\c2cc(Cl)c(O)c(Cl)c2)C(=O)/C(=C/c2cc(Cl)c(O)c(Cl)c2)C1 [CAK04] with PC12 cells. 100.97

* * *

Each item that follows carries a reported Relative growth rate (%) 24 h.
System: PC12 cells
Assay: MTT toxicity (safety evaluation) on PC12 nerve cells
Format: cell-based
Conditions: PC12, 7.5 μM, 24 h
Field: numeric (%). Do not append units.

Please review the following examples before continuing.
item.smiles: CC(C)N1C/C(=C\c2cc(Cl)c(O)c(Cl)c2)C(=O)/C(=C/c2cc(Cl)c(O)c(Cl)c2)C1
unit.of.measurement: %
reported: 99.95
//
item.smiles: CN1C/C(=C\c2cc(Cl)c(O)c(Cl)c2)C(=O)/C(=C/c2cc(Cl)c(O)c(Cl)c2)C1
unit.of.measurement: %
reported: 99.40
//
item.smiles: COc1cc(/C=C2\CNC/C(=C\c3cc(Cl)c(O)c(OC)c3)C2=O)cc(Cl)c1O
unit.of.measurement: %
reported: 100.42

Field request: Relative growth rate (%) 24 h | item: CCN1C/C(=C\c2cc(Cl)c(O)c(Cl)c2)C(=O)/C(=C/c2cc(Cl)c(O)c(Cl)c2)C1 87.65

For COc1cc(/C=C2\CN(C)C/C(=C\c3cc(Cl)c(O)c(OC)c3)C2=O)cc(Cl)c1O , what is its reported Relative growth rate (%) 24 h? 76.49

Name the reported Relative growth rate (%) 24 h value associated with the molecule O=C1/C(=C/c2cc(Cl)c(O)c(Cl)c2)CNC/C1=C\c1cc(Cl)c(O)c(Cl)c1 101.17

// lookup Relative growth rate (%) 24 h for COc1cc(/C=C2\CN(C(C)C)C/C(=C\c3cc(Cl)c(O)c(OC)c3)C2=O)cc(Cl)c1O 68.98

* * *

Catalogue of Rank (cytotoxicity standard) 24 h readings, one per entry.
System: PC12 cells
Test: MTT toxicity (safety evaluation) on PC12 nerve cells
Format: cell-based
Conditions: PC12, 15 μM, 24 h
Protocol: The toxicity of each drug to PC12 cells was determined by MTT assay. […] The blue-purple crystal formazan can be dissolved by DMSO, and the absorbance value is measured by a microplate reader at a wavelength of 490 nm, which in turn reflects the number of living cells. […]
Keep the answer to the number alone.

The examples below pair each entry with its known result.
compound: COc1cc(/C=C2\CN(C)C/C(=C\c3cc(Cl)c(O)c(OC)c3)C2=O)cc(Cl)c1O [CAK07]
Rank (cytotoxicity standard) 24 h: 2
--
compound: COc1cc(/C=C2\CN(C(C)C)C/C(=C\c3cc(Cl)c(O)c(OC)c3)C2=O)cc(Cl)c1O [CAK05]
Rank (cytotoxicity standard) 24 h: 2

// below: Rank (cytotoxicity standard) 24 h requested for another compound
Suppose we examine the compound CN1C/C(=C\c2cc(Cl)c(O)c(Cl)c2)C(=O)/C(=C/c2cc(Cl)c(O)c(Cl)c2)C1 [CAK02] ; what Rank (cytotoxicity standard) 24 h value has been reported? 1

* * *

Test system: PC12 cells
Assay: MTT toxicity (safety evaluation) on PC12 nerve cells
Assay type: cell-based
Settings: PC12, 3.75 μM, 24 h
Method: The toxicity of each drug to PC12 cells was determined by MTT assay. […] The blue-purple crystal formazan can be dissolved by DMSO, and the absorbance value is measured by a microplate reader at a wavelength of 490 nm, which in turn reflects the number of living cells. […]
Rank (cytotoxicity standard) 24 h values by entry
Enter the number alone.

Below, 6 compounds whose answers are already recorded.
compound: CCN1C/C(=C\c2cc(Cl)c(O)c(Cl)c2)C(=O)/C(=C/c2cc(Cl)c(O)c(Cl)c2)C1 [CAK03]
reported: 1
--
compound: COc1cc(/C=C2\CN(C(C)C)C/C(=C\c3cc(Cl)c(O)c(OC)c3)C2=O)cc(Cl)c1O [CAK05]
reported: 1
--
compound: O=C1/C(=C/c2cc(Cl)c(O)c(Cl)c2)CNC/C1=C\c1cc(Cl)c(O)c(Cl)c1 [CAK01]
reported: 0
--
compound: CN1C/C(=C\c2cc(Cl)c(O)c(Cl)c2)C(=O)/C(=C/c2cc(Cl)c(O)c(Cl)c2)C1 [CAK02]
reported: 0
--
compound: COc1cc(/C=C2\CNC/C(=C\c3cc(Cl)c(O)c(OC)c3)C2=O)cc(Cl)c1O [CAK06]
reported: 0
--
compound: COc1cc(/C=C2\CN(C)C/C(=C\c3cc(Cl)c(O)c(OC)c3)C2=O)cc(Cl)c1O [CAK07]
reported: 1

Give recorded Rank (cytotoxicity standard) 24 h with PC12 cells for the following compound: CC(C)N1C/C(=C\c2cc(Cl)c(O)c(Cl)c2)C(=O)/C(=C/c2cc(Cl)c(O)c(Cl)c2)C1 [CAK04] 1

* * *

Test system: PC12 cells
Experiment: MTT toxicity (safety evaluation) on PC12 nerve cells
Assay type: cell-based
Settings: PC12, 60 μM, 24 h
observable: Rank (cytotoxicity standard) 24 h
Hey, just send me the number, nothing else.

Below are worked cases with known answers.
compound: COc1cc(/C=C2\CN(C(C)C)C/C(=C\c3cc(Cl)c(O)c(OC)c3)C2=O)cc(Cl)c1O [CAK05]
reported: 3
//
compound: COc1cc(/C=C2\CNC/C(=C\c3cc(Cl)c(O)c(OC)c3)C2=O)cc(Cl)c1O [CAK06]
reported: 0
//
compound: COc1cc(/C=C2\CN(C)C/C(=C\c3cc(Cl)c(O)c(OC)c3)C2=O)cc(Cl)c1O [CAK07]
reported: 3
//
compound: CC(C)N1C/C(=C\c2cc(Cl)c(O)c(Cl)c2)C(=O)/C(=C/c2cc(Cl)c(O)c(Cl)c2)C1 [CAK04]
reported: 0
//
compound: CN1C/C(=C\c2cc(Cl)c(O)c(Cl)c2)C(=O)/C(=C/c2cc(Cl)c(O)c(Cl)c2)C1 [CAK02]
reported: 1
//
compound: O=C1/C(=C/c2cc(Cl)c(O)c(Cl)c2)CNC/C1=C\c1cc(Cl)c(O)c(Cl)c1 [CAK01]
reported: 0

Turning to the following compound.
Look up Rank (cytotoxicity standard) 24 h: CCN1C/C(=C\c2cc(Cl)c(O)c(Cl)c2)C(=O)/C(=C/c2cc(Cl)c(O)c(Cl)c2)C1 [CAK03] 1
